What follows is a collection of IC50 values obtained with UniProt P00533.

Mol	IC50 [nM]
CN(C)N=Cc1c(N)ncnc1Nc1ccc2c(cnn2Cc2cccc(F)c2)c1	8.2
COc1ccc(NN=Cc2c(N)ncnc2Nc2ccc3c(cnn3Cc3cccc(F)c3)c2)cc1	49
Nc1ncnc(Nc2ccc3c(cnn3Cc3cccc(F)c3)c2)c1C=NNCC(F)(F)F	52.9

* * *

Target or system EGFR (UniProt P00533); recorded quantity IC50.

Mol	Assayed System	IC50 (nM)
COc1cccc(-c2cn(-c3ccc(CC(=O)NCCO)cc3)c3ncncc23)c1	EGFR (UniProt P00533)	800
COc1cccc(-c2cn(-c3ccc(CCN(C)CCO)cc3)c3ncncc23)c1	EGFR (UniProt P00533)	300

* * *

molecular target: MAP2K1;MAPK14 (human) (UniProt Q16539); assay: Inhibition of CaCO Cell Proliferation by MTT Assay; details: caco-2
Sequence (Q16539 whole entry, looked up): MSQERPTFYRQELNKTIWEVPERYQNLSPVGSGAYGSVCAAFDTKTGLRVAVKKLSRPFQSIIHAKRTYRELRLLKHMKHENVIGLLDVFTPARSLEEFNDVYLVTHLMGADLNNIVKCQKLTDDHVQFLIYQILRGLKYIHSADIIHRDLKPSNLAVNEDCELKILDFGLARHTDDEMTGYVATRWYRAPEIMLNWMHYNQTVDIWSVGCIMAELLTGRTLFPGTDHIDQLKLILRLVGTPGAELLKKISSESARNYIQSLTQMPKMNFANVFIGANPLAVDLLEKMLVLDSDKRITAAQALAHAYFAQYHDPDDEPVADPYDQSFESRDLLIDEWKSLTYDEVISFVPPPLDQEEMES
pIC50: −log10 of the molar value.

Mol	pIC50
COc1cc2c(Nc3ccc(Sc4nccn4C)c(Cl)c3)c(C#N)cnc2cc1OCCC[N+]1([O-])CCSCC1	< 6.00

* * *

target: MTOR;PIK3CA (human); test: Inhibition of PIK3CA and MTOR Kinase Activity in Caco-2 Cells

Mol	IC50 / µM
COc1ccc2c(c1)c(C=C1Oc3cc(O)cc(O)c3C1=O)c(C)n2CCN1CCN(CCO)CC1	9

* * *

biological target: MAPK14 (UniProt Q16539); assay: Enzyme Assay
Sequence (Q16539 whole entry, looked up): as the sequence (Q16539 whole entry, looked up) above

Molecule	Assayed System	Unit Tag	IC50
Cc1cccc(C(=O)c2ccc(Nc3ccc(N)cc3)cc2Cl)c1	MAPK14 (UniProt Q16539)	nM	190
Fc1ccc(-c2ncn(CCCN3CCOCC3)c2-c2ccccn2)cc1	MAPK14 (UniProt Q16539)	nM	64600
OCCC#Cc1nc(-c2ccc(F)cc2)c(-c2ccncc2)n1CCCc1ccccc1	MAPK14 (UniProt Q16539)	nM	16.1
Cc1cc(-c2[nH]c(-c3ccc([S+](C)[O-])cc3)nc2-c2ccc(F)cc2)ccn1 (stereo not given)	MAPK14 (UniProt Q16539)	nM	370
Nc1ccccc1Nc1ccc2c(c1)OCc1ccccc1C2=O	MAPK14 (UniProt Q16539)	nM	303

* * *

target: PIK3CA (UniProt P42336); assay: PIK3CA Inhibition
Sequence (P42336 whole entry, looked up): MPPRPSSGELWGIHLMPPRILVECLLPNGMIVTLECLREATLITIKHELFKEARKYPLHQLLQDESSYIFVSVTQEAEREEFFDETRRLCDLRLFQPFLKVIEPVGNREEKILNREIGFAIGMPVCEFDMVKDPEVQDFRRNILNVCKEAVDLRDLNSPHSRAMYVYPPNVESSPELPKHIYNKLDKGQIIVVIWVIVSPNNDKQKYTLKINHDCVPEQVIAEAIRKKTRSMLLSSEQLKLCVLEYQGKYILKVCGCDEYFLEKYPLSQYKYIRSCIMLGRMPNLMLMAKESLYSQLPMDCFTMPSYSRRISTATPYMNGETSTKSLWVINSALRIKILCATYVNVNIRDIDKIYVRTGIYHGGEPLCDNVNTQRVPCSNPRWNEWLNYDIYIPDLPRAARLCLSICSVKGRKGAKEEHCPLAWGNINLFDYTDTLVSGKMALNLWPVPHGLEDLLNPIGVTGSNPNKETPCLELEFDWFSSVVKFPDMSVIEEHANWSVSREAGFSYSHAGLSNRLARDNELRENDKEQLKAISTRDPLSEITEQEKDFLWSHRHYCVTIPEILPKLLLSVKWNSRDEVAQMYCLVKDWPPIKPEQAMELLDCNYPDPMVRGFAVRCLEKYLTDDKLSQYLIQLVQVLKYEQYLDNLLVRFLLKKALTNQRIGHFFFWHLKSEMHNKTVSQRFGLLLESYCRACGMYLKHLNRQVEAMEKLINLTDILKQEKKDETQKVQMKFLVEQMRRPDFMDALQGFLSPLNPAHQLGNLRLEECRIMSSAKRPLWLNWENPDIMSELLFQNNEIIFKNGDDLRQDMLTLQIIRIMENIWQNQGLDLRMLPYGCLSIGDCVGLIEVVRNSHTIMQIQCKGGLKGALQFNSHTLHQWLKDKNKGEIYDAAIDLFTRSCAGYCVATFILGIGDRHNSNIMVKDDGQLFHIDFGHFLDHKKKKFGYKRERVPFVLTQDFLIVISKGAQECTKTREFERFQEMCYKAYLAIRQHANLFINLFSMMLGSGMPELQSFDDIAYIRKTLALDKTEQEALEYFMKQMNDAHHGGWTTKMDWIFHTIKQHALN

Mol	IC50 [µM]
CCCCCCCCCCCCCCCC(=O)OC[C@H](COP(=O)(O)O[C@H]1[C@H](O)[C@@H](O)[C@H](O)C[C@H]1O)OC(=O)CCCCCCCCCCCCCCC	38.4
CCCCCCCCCCCCCCCCCCOC[C@H](COP(=O)(O)O[C@H]1[C@H](O)[C@@H](O)CC[C@H]1O)OC	0.8

* * *

target: MAPK14 (UniProt Q16539); test: p38-mediated EGFR Peptide Phosphorylation Inhibition
pIC50: −log10 of the molar value.
Property Measured: pIC50

Mol	Assayed System	Property Measured	Measured Number
O=c1ncn2nc(Sc3ccccc3)ccc2c1-c1c(Cl)cccc1Cl	MAPK14 (UniProt Q16539)	pIC50	5.89

* * *

target: CDK2 (human); assay: Cell-Based Assay; settings: a2780
pIC50: −log10 of the molar value.

Mol	pIC50
O=C(Cc1ccc(-c2ccc(C(=O)O)cc2)cc1)Nc1cc(C2CC2)[nH]n1	< 4.70
COc1cccc(CC(=O)Nc2cc(C3CC3)[nH]n2)c1	< 4.70

* * *

target: UniProt:Q28021
Sequence (Q28021 whole entry, looked up): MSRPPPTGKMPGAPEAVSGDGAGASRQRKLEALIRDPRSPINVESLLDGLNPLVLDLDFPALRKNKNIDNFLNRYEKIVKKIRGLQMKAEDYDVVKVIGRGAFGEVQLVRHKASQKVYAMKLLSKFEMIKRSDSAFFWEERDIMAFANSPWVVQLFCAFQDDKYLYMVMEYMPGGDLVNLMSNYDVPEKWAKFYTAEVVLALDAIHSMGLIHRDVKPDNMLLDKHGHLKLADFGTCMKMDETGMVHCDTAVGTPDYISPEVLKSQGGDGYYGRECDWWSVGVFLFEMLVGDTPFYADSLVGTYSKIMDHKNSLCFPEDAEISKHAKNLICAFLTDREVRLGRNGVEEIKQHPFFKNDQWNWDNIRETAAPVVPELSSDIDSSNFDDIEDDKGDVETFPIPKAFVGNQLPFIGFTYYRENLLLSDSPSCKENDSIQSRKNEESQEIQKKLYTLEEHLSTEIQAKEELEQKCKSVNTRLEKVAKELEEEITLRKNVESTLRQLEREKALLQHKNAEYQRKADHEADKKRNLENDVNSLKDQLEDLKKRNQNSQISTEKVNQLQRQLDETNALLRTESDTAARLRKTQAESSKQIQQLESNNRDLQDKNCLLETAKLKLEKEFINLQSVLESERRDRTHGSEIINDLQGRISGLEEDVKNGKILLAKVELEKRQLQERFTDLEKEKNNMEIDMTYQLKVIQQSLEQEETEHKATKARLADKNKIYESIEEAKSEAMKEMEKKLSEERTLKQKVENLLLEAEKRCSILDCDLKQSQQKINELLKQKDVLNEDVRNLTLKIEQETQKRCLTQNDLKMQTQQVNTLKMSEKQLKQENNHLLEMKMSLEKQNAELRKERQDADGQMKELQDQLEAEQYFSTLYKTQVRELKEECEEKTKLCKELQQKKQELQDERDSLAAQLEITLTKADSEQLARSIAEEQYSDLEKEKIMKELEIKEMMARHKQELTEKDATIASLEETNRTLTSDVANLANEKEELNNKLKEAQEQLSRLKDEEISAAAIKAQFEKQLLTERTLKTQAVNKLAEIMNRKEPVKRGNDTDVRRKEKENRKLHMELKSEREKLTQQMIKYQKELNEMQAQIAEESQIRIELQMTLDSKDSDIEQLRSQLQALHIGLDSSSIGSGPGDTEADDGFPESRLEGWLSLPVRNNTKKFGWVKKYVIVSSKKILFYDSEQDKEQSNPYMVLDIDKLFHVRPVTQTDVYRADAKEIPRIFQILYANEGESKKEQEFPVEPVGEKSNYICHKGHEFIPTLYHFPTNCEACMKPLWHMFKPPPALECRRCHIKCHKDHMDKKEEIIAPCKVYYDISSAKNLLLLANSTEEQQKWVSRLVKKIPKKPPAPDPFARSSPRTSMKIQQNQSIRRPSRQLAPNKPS
pIC50: −log10 of the molar value.

Compound	pIC50
CC(C)c1ccc(CN2CCCC(Nc3cccc4cnccc34)C2)cc1 (stereo unspecified)	6.28

* * *

biological target: CDK2 (human) (UniProt P24941)
Property Measured: IC50 (µM)

Mol	Property Measured	Measured Number
NC(=O)c1c(NC(=O)CN2C(=O)CCC2=O)sc2c1CCC2	IC50	8

* * *

biological target: MAPK14 (human); experiment: Inhibition of MAPK14 Kinase Activity
Property Measured: log10 of IC50 (log10 of the value in nM)

Compound	Assayed System	log10 of IC50
Cc1ncc(Cn2c(C)cc(OCc3ccc(F)cc3F)c(Br)c2=O)cn1	MAPK14 (human)	2.26
CC(C)Nc1cc(-c2nc3ccncc3nc2-c2ccc(F)cc2)ccn1.CC(C)Nc1cc(-c2nc3cnccc3nc2-c2ccc(F)cc2)ccn1	MAPK14 (human)	2.72
Cc1cc(OCc2ccc(F)cc2F)c(Br)c(=O)n1Cc1cnc(CO)cn1	MAPK14 (human)	2.65
CCOc1ccc(-c2onc(-c3ccncc3)c2-c2ccc(F)cc2)cc1	MAPK14 (human)	4.00
O=c1ccc2c(-c3ccc(F)cc3F)[n+]([O-])ccc2n1-c1c(Cl)cccc1Cl	MAPK14 (human)	1.08
COc1ccccc1-c1nnc2sc(COc3ccc(F)cc3)nn12	MAPK14 (human)	2.81
CC(C)(C)c1cc(NC(=O)Nc2cccc(Oc3ccnc4[nH]c(=O)[nH]c34)c2)n(-c2ccccc2)n1	MAPK14 (human)	2.18
Nc1nccc(/C=C/c2c(-c3ccccc3)nc3sccn23)n1	MAPK14 (human)	3.20
CC(n1c(N)nc2ccc(-c3[nH]c(-c4c(F)cccc4F)nc3-c3ccc(F)cc3)nc21)C(C)(C)C (centres undefined)	MAPK14 (human)	0.52
Cc1ccc(C(=O)NC2CC2)cc1-c1cc2cnnc(-c3ccccc3C)c2n(C)c1=O	MAPK14 (human)	0.43

* * *

molecular target: CDK2 (human) (UniProt P24941); assay: Enzyme Assay
pIC50: −log10 of the molar value.
Entries and their pIC50

Mol	pIC50
CC[C@H](CO)Nc1cc(NCc2ccc(-c3ccccn3)cc2)c2ncn(C(C)C)c2n1	6.60
CC[C@@H](CO)Nc1cc(NCc2ccccc2)c2ncn(C(C)C)c2n1	6.51
CC[C@H](CO)Nc1cc(NCc2ccccc2)c2ncn(C(C)C)c2n1	6.74
CC[C@@H](CO)Nc1cc(NCc2ccc(-c3ccccn3)cc2)c2ncn(C(C)C)c2n1	7.00

* * *

biological target: EGFR (human) (UniProt P00533)
pIC50: −log10 of the molar value.
Quick reference for pIC50 among some compounds

Mol	Assayed System	pIC50
COc1cc2c(cc1OC)Oc1ncnc(Oc3cccc(Br)c3)c1N(C)C2	EGFR (human) (UniProt P00533)	5.34
COc1cc2c(cc1OC)Oc1ncnc(Oc3ccc(F)c(Cl)c3)c1NC2	EGFR (human) (UniProt P00533)	5.92

* * *

biological target: EGFR (human) (UniProt P00533); conditions: a431
pIC50: −log10 of the molar value.
Consider the following compounds and their measured pIC50 readings.

Mol	pIC50
C=CC(=O)N1CCC[C@@H]1C(=O)Nc1ccc2ncnc(Nc3ccc(OCc4ccccn4)c(Cl)c3)c2c1	6.25
C=CC(=O)N1CCCC[C@H]1C(=O)Nc1ccc2ncnc(Nc3ccc(OCc4ccccn4)c(Cl)c3)c2c1	6.98
C=CC(=O)N1CC[C@H]1C(=O)Nc1ccc2ncnc(Nc3ccc(OCc4ccccn4)c(Cl)c3)c2c1	6.66
C=CC(=O)N1CC(C(=O)Nc2ccc3ncnc(Nc4ccc(OCc5ccccn5)c(Cl)c4)c3c2)C1	5.85

* * *

target: MAPK14 (UniProt Q16539); assay: p38 Kinase Inhibition
pIC50: −log10 of the molar value.
Recorded pIC50 values for a group of molecules are listed next.

Mol	Censoring Operator	pIC50
COc1cc2ncnc(N3CCN(C(=S)NCc4ccc5c(c4)OCO5)CC3)c2cc1OC	<	4.52
Nc1c(C(=O)c2cccc(NC=NO)c2)cnn1-c1ccc(F)cc1	=	5.84
COc1cc2ncnc(N3CCN(C(=S)NCc4ccccc4)CC3)c2cc1OC	<	4.52
C[C@]1(C(=O)N2CCOCC2)CO[C@H](c2nc(-c3ccc(F)cc3)c(-c3ccnc(NCc4ccccn4)n3)[nH]2)OC1	=	7.96

* * *

target: UniProt:P42336; test: Inhibition of PIK3CA Kinase (ATP Loss) Activity
Property Measured: IC50 (nM)

Mol	Measured Number
O=S(=O)(Nc1cc(-c2ccc3ncc(N4C[C@H]5CC[C@@H](CC5)C4)nc3c2)cnc1Cl)c1ccc(F)cc1	5.9

* * *

biological target: EGFR (UniProt P00533)
Sequence (P00533 whole entry, looked up): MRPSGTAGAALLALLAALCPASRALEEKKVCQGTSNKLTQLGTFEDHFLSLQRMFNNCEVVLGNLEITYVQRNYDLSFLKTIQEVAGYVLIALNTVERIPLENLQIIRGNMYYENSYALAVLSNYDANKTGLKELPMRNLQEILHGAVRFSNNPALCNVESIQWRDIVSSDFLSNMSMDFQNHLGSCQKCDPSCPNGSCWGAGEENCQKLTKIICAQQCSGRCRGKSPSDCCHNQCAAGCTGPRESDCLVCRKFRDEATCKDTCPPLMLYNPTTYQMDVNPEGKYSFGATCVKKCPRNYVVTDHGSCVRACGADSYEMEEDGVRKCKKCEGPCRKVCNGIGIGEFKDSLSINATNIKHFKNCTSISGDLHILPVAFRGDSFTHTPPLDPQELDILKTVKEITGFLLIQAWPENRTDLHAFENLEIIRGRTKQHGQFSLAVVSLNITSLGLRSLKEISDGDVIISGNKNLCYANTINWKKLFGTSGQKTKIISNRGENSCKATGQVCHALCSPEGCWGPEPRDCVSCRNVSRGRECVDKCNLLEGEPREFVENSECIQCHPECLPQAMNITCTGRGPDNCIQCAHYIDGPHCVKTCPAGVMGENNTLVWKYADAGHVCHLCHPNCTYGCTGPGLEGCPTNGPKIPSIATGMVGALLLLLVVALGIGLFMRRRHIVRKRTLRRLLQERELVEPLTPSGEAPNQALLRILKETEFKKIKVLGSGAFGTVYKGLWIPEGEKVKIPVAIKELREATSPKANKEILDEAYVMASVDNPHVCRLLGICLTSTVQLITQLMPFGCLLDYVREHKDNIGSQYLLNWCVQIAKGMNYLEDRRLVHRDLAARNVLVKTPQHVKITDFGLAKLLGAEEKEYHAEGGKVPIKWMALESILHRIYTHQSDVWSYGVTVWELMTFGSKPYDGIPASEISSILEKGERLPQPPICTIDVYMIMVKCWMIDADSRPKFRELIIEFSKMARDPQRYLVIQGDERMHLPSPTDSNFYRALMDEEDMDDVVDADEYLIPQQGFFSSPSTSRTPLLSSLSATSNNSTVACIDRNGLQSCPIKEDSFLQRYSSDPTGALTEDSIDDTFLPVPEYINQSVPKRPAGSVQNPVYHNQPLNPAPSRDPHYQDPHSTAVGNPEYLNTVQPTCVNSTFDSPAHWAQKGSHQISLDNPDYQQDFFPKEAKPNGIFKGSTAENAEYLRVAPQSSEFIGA
pIC50: −log10 of the molar value.
Property Measured: pIC50

Mol	Result
c1ccc2c(c1)CCc1c-2n[nH]c1-c1ccncc1	< 4.30

* * *

target: EGFR (UniProt P00533)
pIC50: −log10 of the molar value.
Property Measured: pIC50

Mol	Property Measured	Measured Number
COc1cc2ncc(C#N)c(Nc3cc(OC)c(OC)c(OC)c3)c2cc1OC	pIC50	5.82

* * *

The next entries give measured pIC50 for EGFR (human).
pIC50: −log10 of the molar value.

Mol	pIC50
CS(=O)(=O)CCNCc1nc(-c2ccc3ncnc(Nc4ccc(OCc5cccc(F)c5)c(Cl)c4)c3c2)cs1	> 7.00
CS(=O)(=O)CCNCc1ccc(-c2ccc3ncnc(Nc4ccc(OCc5cccc(F)c5)c(Br)c4)c3c2)o1	> 7.00
